target_under_test: MET (cMet) (Homo sapiens)
assay_overview: SelectScreen kinase specificity survey
condition: estimated, abridged dose response curve, read-out: Kinase inhibitory activity EC50
result_type: EC50

Prompt: For the compound "CN(C)CCCNc1ccc2ncn3c4ccc5[nH]ncc5c4c(=O)c1c23" , what EC50 is on record?
Completion: > 5 µM

Prompt: For the compound CCN(CC)CCNc1ccc2ncn3c4ccc(O)cc4c(=O)c1c23 [Symadex, reference compound] , what EC50 is on record?
Completion: > 5 µM

----------
target_under_test: UniProt Q7KZI7
assay_overview: SelectScreen kinase specificity survey
condition: estimated, abridged dose response curve, read-out: Kinase inhibitory activity EC50
result_type: pEC50
pEC50 is defined as minus the log10 of a concentration measured in mol/L.

CCN(CC)CCNc1ccc2ncn3c4ccc(O)cc4c(=O)c1c23 [Symadex, reference compound] | 5.69

Prompt: For the molecule "CN(C)CCCNc1ccc2ncn3c4ccc5[nH]ncc5c4c(=O)c1c23" , what pEC50 is on record?
Completion: 5.46

----------
pEC50 values for the molecules below.
target_under_test: UniProt Q16566
assay_overview: SelectScreen kinase specificity survey
condition: estimated, abridged dose response curve, read-out: Kinase inhibitory activity EC50
pEC50: −log10 of the molar value.

Prompt: For the molecule "CN(C)CCCNc1ccc2ncn3c4ccc5[nH]ncc5c4c(=O)c1c23" , what pEC50 is on record?
Completion: < 5.30

Prompt: For the molecule CCN(CC)CCNc1ccc2ncn3c4ccc(O)cc4c(=O)c1c23 [Symadex, reference compound] , what pEC50 is on record?
Completion: < 5.30

----------
EC50 values for the molecules below.
target_under_test: SGK2 (Homo sapiens, UniProt Q9HBY8)
Sequence (Q9HBY8 1-367): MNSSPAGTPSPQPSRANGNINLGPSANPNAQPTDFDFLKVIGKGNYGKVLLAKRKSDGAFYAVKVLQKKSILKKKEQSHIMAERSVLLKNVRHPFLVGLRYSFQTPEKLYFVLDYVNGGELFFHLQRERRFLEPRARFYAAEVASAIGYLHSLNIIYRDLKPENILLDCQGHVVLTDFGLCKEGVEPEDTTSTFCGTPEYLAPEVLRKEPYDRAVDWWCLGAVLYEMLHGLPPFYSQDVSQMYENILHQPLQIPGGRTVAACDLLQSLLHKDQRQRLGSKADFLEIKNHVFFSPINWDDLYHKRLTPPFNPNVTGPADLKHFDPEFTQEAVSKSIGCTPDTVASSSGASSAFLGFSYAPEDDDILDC
assay_overview: SelectScreen kinase specificity survey
condition: estimated, abridged dose response curve, read-out: Kinase inhibitory activity EC50

CCN(CC)CCNc1ccc2ncn3c4ccc(O)cc4c(=O)c1c23 [Symadex, reference compound] | > 5 µM

Could you now consider this next molecule?
Prompt: For the molecule CN(C)CCCNc1ccc2ncn3c4ccc5[nH]ncc5c4c(=O)c1c23 [Compound (IV)] , what EC50 is on record?
Completion: > 5 µM

----------
target_under_test: DAPK3 (ZIPK) (Homo sapiens, UniProt O43293)
assay_overview: SelectScreen kinase specificity survey
condition: estimated, abridged dose response curve, read-out: Kinase inhibitory activity EC50
result_type: EC50 (µM)
Entry rule: numbers only, all in µM.

Prompt: For the molecule "CN(C)CCCNc1ccc2ncn3c4ccc5[nH]ncc5c4c(=O)c1c23" , what EC50 is on record?
Completion: 0.973

----------
target_under_test: PRKX (Homo sapiens, UniProt P51817)
Sequence (P51817 whole entry): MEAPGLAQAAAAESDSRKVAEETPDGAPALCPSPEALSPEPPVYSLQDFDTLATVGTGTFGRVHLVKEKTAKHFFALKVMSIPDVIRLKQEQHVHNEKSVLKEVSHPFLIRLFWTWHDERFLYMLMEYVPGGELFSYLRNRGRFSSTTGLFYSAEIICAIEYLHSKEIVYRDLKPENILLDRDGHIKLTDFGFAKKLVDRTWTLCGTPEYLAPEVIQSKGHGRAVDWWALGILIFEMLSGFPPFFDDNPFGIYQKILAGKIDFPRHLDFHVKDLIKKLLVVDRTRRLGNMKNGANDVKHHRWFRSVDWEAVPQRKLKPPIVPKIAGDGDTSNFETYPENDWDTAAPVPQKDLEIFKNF
assay_overview: SelectScreen kinase specificity survey
condition: estimated, abridged dose response curve, read-out: Kinase inhibitory activity EC50
result_type: EC50
Give your result as the value with the unit written after it.

CN(C)CCCNc1ccc2ncn3c4ccc5[nH]ncc5c4c(=O)c1c23 [Compound (IV)] | 1.4 µM

Could you now consider this next compound?
Prompt: For the compound CCN(CC)CCNc1ccc2ncn3c4ccc(O)cc4c(=O)c1c23 [Symadex, reference compound] , what EC50 is on record?
Completion: 3.56 µM

----------
target_under_test: CSF1R (FMS) (Homo sapiens)
Sequence (P07333 20-972): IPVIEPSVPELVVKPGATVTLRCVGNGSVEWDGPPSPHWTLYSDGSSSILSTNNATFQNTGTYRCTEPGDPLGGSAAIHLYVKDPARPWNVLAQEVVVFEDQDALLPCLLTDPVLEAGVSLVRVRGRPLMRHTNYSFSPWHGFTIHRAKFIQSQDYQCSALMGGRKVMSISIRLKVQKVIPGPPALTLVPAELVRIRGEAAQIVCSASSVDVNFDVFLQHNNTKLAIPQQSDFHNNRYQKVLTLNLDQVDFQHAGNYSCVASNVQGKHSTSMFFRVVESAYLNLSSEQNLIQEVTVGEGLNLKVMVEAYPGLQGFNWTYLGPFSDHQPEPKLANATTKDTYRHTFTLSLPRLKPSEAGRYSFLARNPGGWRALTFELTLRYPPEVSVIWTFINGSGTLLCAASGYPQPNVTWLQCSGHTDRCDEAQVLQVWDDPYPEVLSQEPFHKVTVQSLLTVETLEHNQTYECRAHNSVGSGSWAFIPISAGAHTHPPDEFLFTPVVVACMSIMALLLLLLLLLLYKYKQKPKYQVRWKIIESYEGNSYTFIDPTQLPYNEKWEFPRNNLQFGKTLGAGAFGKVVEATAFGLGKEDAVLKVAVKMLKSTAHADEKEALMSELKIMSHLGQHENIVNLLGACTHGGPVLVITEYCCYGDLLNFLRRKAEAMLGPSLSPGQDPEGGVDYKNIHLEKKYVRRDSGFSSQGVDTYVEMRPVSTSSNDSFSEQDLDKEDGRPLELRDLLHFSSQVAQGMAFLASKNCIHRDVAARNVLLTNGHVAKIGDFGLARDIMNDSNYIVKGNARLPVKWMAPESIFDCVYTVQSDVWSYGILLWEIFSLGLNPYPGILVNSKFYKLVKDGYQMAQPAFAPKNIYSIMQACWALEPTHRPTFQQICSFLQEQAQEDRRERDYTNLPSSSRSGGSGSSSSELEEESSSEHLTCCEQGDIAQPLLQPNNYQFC
assay_overview: SelectScreen kinase specificity survey
condition: estimated, abridged dose response curve, read-out: Kinase inhibitory activity EC50
pEC50 values for the molecules below.
pEC50 is defined as minus the log10 of a concentration measured in mol/L.

CN(C)CCCNc1ccc2ncn3c4ccc5[nH]ncc5c4c(=O)c1c23 [Compound (IV)] | 6.69

Could you now consider this next molecule?
Prompt: For the molecule CCN(CC)CCNc1ccc2ncn3c4ccc(O)cc4c(=O)c1c23 [Symadex, reference compound] , what pEC50 is on record?
Completion: 6.37

----------
EC50 values for the compounds below.
target_under_test: PIM1 (Homo sapiens, UniProt P11309)
Sequence (P11309 whole entry): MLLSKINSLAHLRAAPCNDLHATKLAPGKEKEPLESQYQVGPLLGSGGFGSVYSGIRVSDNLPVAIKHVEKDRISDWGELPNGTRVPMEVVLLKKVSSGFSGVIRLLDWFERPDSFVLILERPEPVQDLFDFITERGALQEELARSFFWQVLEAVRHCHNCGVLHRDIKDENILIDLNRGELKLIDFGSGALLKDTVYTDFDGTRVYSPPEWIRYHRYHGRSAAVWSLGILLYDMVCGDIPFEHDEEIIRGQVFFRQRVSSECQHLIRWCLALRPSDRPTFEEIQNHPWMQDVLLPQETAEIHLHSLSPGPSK
assay_overview: SelectScreen kinase specificity survey
condition: estimated, abridged dose response curve, read-out: Kinase inhibitory activity EC50
Entry rule: numbers only, all in nM.

CN(C)CCCNc1ccc2ncn3c4ccc5[nH]ncc5c4c(=O)c1c23 | 3420

Could you now consider this next compound?
Prompt: For the compound CCN(CC)CCNc1ccc2ncn3c4ccc(O)cc4c(=O)c1c23 [Symadex, reference compound] , what EC50 is on record?
Completion: 959

----------
EC50 values for the compounds below.
target_under_test: EEF2K (Homo sapiens)
assay_overview: SelectScreen kinase specificity survey
condition: estimated, abridged dose response curve, read-out: Kinase inhibitory activity EC50

Prompt: For the compound CCN(CC)CCNc1ccc2ncn3c4ccc(O)cc4c(=O)c1c23 [Symadex, reference compound] , what EC50 is on record?
Completion: > 5 µM

Prompt: For the compound "CN(C)CCCNc1ccc2ncn3c4ccc5[nH]ncc5c4c(=O)c1c23" , what EC50 is on record?
Completion: > 5 µM

----------
pEC50 values for the compounds below.
target_under_test: FRK (PTK5) (Homo sapiens, UniProt P42685)
Sequence (P42685 whole entry): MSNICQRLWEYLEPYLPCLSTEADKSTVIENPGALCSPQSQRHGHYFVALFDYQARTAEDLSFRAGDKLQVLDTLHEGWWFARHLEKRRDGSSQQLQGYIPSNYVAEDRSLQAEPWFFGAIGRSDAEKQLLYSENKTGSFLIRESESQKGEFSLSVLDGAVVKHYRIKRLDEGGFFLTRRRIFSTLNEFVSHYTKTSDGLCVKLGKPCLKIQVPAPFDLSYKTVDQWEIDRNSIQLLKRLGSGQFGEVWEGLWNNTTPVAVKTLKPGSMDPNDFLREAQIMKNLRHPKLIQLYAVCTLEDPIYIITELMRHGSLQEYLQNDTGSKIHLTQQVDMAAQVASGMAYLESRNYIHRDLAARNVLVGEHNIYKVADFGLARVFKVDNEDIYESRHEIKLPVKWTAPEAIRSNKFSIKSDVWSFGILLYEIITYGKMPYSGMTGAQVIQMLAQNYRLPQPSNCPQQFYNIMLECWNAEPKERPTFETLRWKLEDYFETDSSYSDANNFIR
assay_overview: SelectScreen kinase specificity survey
condition: estimated, abridged dose response curve, read-out: Kinase inhibitory activity EC50
pEC50 is defined as minus the log10 of a concentration measured in mol/L.

CCN(CC)CCNc1ccc2ncn3c4ccc(O)cc4c(=O)c1c23 [Symadex, reference compound] | 5.68

Prompt: For the compound "CN(C)CCCNc1ccc2ncn3c4ccc5[nH]ncc5c4c(=O)c1c23" , what pEC50 is on record?
Completion: 6.41

----------
target_under_test: CSNK1E (CK1 epsilon) (Homo sapiens, UniProt P49674)
Sequence (P49674 whole entry): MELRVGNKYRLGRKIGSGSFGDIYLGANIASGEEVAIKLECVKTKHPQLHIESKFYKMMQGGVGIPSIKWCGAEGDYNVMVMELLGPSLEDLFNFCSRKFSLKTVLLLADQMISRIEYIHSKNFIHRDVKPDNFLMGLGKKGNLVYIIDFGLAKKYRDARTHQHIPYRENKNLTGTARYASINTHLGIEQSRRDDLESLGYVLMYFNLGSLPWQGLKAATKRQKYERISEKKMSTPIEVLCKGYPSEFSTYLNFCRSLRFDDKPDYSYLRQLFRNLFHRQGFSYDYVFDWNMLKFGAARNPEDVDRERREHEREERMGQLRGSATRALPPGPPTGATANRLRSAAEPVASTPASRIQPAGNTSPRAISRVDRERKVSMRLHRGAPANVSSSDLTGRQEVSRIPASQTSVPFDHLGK
assay_overview: SelectScreen kinase specificity survey
condition: estimated, abridged dose response curve, read-out: Kinase inhibitory activity EC50
result_type: EC50 (nM)
Entry rule: numbers only, all in nM.

Prompt: Test system CSNK1E (CK1 epsilon) (Homo sapiens, UniProt P49674); read-out EC50; what value for CCN(CC)CCNc1ccc2ncn3c4ccc(O)cc4c(=O)c1c23 [Symadex, reference compound] ?
Completion: 1090

----------
target_under_test: UniProt:O15530
Sequence (O15530 whole entry): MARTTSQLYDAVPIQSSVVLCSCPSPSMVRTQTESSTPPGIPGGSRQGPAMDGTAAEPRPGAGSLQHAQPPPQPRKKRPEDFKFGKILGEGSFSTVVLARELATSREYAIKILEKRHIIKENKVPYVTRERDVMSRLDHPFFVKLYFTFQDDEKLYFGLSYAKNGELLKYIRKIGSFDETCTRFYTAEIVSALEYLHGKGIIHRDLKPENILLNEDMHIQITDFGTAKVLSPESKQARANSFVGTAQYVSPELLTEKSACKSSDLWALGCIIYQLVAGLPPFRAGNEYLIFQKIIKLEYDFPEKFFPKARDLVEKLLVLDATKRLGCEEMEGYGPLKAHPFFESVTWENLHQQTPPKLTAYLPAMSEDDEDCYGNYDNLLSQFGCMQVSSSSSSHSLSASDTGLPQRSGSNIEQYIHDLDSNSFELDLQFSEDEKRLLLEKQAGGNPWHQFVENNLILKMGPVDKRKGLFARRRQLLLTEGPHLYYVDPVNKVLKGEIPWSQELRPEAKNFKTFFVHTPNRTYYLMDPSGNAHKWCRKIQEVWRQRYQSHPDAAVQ
assay_overview: SelectScreen kinase specificity survey
condition: estimated, abridged dose response curve, read-out: Kinase inhibitory activity EC50
result_type: EC50 (nM)
Entry rule: numbers only, all in nM.

Prompt: For the molecule "CN(C)CCCNc1ccc2ncn3c4ccc5[nH]ncc5c4c(=O)c1c23" , what EC50 is on record?
Completion: 2900

----------
target_under_test: GRK5 (Homo sapiens, UniProt P34947)
Construct: purchased Invitrogen (SelectScreen platform)
assay_overview: SelectScreen kinase specificity survey
Format: biochemical
result_type: EC50

Prompt: For the molecule CCN(CC)CCNc1ccc2ncn3c4ccc(O)cc4c(=O)c1c23 [Symadex, reference compound] , what EC50 is on record?
Completion: > 5 µM

----------
System: MV4-11 (leukemia) cell line
assay_overview: sulforhodamine B (SRB) cytotoxicity assay
Format: cell-based
condition: Homo sapiens, MV4-11, 72 h, 50 μM highest concentration, diluted 1:4; 3 day incubation; read-out: IC50 Measured Against MV4-11 Cell Line
result_type: pIC50
pIC50 is defined as minus the log10 of a concentration measured in mol/L.

CN1CCN(CCCNc2ccc3ncn4c5ccc6[nH]ncc6c5c(=O)c2c34)CC1 | 7.09

Could you now consider this next molecule?
Prompt: For the molecule CCN(CC)CCNc1ccc2ncn3c4ccc(O)cc4c(=O)c1c23 [Symadex, reference compound] , what pIC50 is on record?
Completion: 7.55

----------
target_under_test: EGFR (ErbB1) T790M (Homo sapiens, UniProt P00533, T790M)
Sequence (P00533 25-1210 T790M): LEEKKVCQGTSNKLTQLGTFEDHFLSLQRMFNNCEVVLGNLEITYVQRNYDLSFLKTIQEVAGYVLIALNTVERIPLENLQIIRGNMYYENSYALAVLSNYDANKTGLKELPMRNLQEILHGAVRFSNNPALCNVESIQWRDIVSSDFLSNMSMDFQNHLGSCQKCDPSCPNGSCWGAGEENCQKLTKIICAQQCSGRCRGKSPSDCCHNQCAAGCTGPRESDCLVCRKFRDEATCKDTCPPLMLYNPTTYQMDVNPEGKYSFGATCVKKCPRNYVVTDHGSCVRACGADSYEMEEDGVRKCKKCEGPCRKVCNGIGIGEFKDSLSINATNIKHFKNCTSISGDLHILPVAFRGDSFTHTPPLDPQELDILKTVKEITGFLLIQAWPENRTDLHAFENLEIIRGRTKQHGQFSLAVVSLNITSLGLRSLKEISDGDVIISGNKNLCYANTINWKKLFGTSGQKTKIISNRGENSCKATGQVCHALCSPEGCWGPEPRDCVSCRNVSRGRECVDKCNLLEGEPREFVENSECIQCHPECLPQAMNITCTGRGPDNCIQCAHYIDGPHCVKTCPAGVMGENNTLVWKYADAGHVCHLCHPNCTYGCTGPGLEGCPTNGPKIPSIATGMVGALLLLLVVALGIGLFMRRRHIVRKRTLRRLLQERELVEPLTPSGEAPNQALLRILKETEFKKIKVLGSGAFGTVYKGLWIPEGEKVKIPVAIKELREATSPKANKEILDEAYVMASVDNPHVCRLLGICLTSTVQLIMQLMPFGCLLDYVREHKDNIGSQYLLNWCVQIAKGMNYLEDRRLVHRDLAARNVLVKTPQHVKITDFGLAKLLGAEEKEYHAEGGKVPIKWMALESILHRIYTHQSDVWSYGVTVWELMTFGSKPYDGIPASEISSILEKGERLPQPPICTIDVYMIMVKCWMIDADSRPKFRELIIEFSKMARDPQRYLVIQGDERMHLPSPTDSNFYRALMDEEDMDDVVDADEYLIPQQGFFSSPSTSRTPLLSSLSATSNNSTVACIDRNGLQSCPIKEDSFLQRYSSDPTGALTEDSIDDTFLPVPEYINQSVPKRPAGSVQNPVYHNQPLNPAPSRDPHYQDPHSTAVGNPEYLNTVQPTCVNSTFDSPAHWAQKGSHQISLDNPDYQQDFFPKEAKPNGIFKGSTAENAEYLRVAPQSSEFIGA
assay_overview: SelectScreen kinase specificity survey
condition: estimated, abridged dose response curve, read-out: Kinase inhibitory activity EC50
result_type: EC50 (µM)
Entry rule: numbers only, all in µM.

CN(C)CCCNc1ccc2ncn3c4ccc5[nH]ncc5c4c(=O)c1c23 | 4.01

Could you now consider this next molecule?
Prompt: For the molecule CCN(CC)CCNc1ccc2ncn3c4ccc(O)cc4c(=O)c1c23 [Symadex, reference compound] , what EC50 is on record?
Completion: 2.9

----------
target_under_test: UniProt Q9NYY3
Sequence (Q9NYY3 whole entry): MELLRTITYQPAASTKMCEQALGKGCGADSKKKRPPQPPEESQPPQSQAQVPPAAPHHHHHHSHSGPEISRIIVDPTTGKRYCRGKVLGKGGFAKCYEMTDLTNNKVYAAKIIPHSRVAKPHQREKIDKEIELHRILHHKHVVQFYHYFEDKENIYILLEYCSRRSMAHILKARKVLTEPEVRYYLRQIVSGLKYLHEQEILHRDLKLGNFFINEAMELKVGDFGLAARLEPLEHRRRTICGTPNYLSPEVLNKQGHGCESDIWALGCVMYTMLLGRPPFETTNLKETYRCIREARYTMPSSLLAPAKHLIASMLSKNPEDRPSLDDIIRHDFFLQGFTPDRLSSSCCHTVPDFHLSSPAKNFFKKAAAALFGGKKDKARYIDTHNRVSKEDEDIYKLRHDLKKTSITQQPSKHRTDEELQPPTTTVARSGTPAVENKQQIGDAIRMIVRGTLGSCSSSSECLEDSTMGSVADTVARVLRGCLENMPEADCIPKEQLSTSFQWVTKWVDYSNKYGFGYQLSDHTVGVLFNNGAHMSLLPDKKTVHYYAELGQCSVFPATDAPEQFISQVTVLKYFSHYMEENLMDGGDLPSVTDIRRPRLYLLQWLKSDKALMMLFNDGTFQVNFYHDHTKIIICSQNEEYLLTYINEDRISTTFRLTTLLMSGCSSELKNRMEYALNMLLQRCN
assay_overview: SelectScreen kinase specificity survey
condition: estimated, abridged dose response curve, read-out: Kinase inhibitory activity EC50
EC50 values for the compounds below.

CCN(CC)CCNc1ccc2ncn3c4ccc(O)cc4c(=O)c1c23 [Symadex, reference compound] | > 5 µM

Prompt: For the compound "CN(C)CCCNc1ccc2ncn3c4ccc5[nH]ncc5c4c(=O)c1c23" , what EC50 is on record?
Completion: > 5 µM
